Study system: human TACE (Homo sapiens (Human))
Sequence (P78536 whole entry, looked up, change not shown): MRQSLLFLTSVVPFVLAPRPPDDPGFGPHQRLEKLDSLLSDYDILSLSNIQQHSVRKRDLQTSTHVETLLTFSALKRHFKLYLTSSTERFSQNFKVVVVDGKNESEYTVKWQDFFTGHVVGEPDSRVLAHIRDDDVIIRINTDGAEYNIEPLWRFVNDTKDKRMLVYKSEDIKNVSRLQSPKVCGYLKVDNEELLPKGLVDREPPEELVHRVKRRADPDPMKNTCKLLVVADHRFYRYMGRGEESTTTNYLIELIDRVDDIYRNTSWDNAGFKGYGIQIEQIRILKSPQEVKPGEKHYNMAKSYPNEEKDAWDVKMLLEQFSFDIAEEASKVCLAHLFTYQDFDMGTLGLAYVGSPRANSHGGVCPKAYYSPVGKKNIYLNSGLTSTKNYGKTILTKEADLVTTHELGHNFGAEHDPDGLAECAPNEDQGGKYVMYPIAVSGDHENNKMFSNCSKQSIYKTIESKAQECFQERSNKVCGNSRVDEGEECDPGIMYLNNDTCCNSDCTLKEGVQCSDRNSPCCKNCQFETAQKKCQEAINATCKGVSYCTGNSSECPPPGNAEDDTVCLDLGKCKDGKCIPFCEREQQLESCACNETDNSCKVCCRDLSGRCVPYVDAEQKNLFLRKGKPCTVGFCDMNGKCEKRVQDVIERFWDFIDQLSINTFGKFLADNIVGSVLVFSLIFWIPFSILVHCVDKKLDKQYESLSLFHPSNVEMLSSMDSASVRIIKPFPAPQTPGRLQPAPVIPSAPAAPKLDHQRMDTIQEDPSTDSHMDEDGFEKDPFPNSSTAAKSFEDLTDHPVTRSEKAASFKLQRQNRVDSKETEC
Stated conditions: read-out: TACE potency IC50
Recorded IC50 by entry

In the examples that follow, each entry is paired with its recorded IC50.
Looking up CN(C)Cc1ccc(C2(CCC(=O)N3CCN(c4cccc(Cl)c4)CC3)NC(=O)NC2=O)cc1 (stereo not shown) , I see its IC50 listed as 2490 nM

Looking up CC(CC1(C)NC(=O)NC1=O)C(=O)N1CCN(c2cc(F)cc(F)c2)[C@@H](C)C1 (stereo partly shown) , I see its IC50 listed as > 20000 nM

Looking up C[C@H]1CN(C(=O)CCC2(C3CC3)NC(=O)NC2=O)CCN1c1nccc(Cl)n1 (stereo partly shown) , I see its IC50 listed as > 20000 nM

Looking up O=C1NC(=O)C(CCC(=O)N2CCN(c3ccc4occc4c3)CC2)(c2ccccc2)N1 (stereo not shown) , I see its IC50 listed as > 2000 nM

Looking up C[C@H]1CN(C(=O)CCC2(c3cn(C)cn3)NC(=O)NC2=O)CCN1c1cc(Cl)cc(Cl)c1 (stereo partly shown) , I see its IC50 listed as 2640 nM

Looking up COCC1(CC(C)C(=O)N2CCN(c3cc(F)cc(F)c3)[C@@H](C)C2)NC(=O)NC1=O (stereo partly shown) , I see its IC50 listed as > 20000 nM

# evaluate next
Looking up CC(CC1(CN2CCC(F)(F)C2)NC(=O)NC1=O)C(=O)N1CCN(c2ccc(F)c(Cl)c2)[C@@H](C)C1 (stereo partly shown) , I see its IC50 listed as > 20000 nM

---

Study system: human TACE (Homo sapiens (Human))
Stated conditions: read-out: TACE potency IC50
Parameter: IC50

Looking up CC(CC1(C)NC(=O)NC1=O)C(=O)N1CCN(c2ccc(F)c(F)c2)CC1 (centres unmarked) [compound 211] , I see its IC50 listed as 3.74 µM

Looking up Cc1cc(C2(CCC(=O)N3CCN(c4cc(F)cc(F)c4)[C@@H](C)C3)NC(=O)NC2=O)no1 (some centres unmarked) [compound 387] , I see its IC50 listed as > 4 µM

Looking up Cc1cc(N2CCN(C(=O)CC[C@@]3(C)NC(=O)NC3=O)C[C@@H]2C)cc(C)c1Cl [compound 470] , I see its IC50 listed as 2.93 µM

Looking up COc1ccccc1C1(CCC(=O)N2CCN(c3cccc(Cl)c3)CC2)NC(=O)NC1=O (centres unmarked) [compound 146] , I see its IC50 listed as 1.58 µM

Others:
Looking up CC(CC1(C)NC(=O)NC1=O)C(=O)N1CCN(c2cncc(Cl)c2)[C@@H](C)C1 (some centres unmarked) [compound 276] , I see its IC50 listed as > 4 µM

Looking up C[C@H]1CN(C(=O)CCC2(C3CC3)NC(=O)NC2=O)CCN1c1ccnc(Cl)n1 (some centres unmarked) [compound 301] , I see its IC50 listed as > 20 µM

Looking up C[C@H]1CN(C(=O)CCC2(C3CC3)NC(=O)NC2=O)CCN1c1cncc(Cl)c1 (some centres unmarked) [compound 260] , I see its IC50 listed as > 20 µM

Looking up C[C@H]1CN(C(=O)CCC2(c3ccncc3)NC(=O)NC2=O)CCN1c1ccc(F)c(Cl)c1 (some centres unmarked) [compound 288] , I see its IC50 listed as > 4 µM
